- TESTED TARGET: IK,Ach (GIRK1/4 channel) (Mus musculus, UniProt P48545+P63250)
- Construct: consistent with the expression of GIRK1/4 channels in the HL-1 cells; endogenous in cells
- Sequence (P63250 whole entry): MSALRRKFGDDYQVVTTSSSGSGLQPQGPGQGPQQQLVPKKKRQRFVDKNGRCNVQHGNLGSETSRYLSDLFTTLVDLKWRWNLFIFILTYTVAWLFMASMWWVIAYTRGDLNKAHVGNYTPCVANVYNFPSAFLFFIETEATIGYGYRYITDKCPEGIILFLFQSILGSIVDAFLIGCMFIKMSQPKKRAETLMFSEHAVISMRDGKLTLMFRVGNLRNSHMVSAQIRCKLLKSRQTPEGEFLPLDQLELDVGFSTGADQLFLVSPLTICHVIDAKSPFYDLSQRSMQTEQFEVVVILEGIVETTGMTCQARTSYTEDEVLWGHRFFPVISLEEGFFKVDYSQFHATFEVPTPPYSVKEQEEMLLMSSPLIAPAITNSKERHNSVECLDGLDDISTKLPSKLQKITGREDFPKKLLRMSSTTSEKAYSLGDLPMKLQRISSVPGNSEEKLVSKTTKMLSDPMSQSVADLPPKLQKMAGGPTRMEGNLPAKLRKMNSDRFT
- Sequence (P48545 whole entry): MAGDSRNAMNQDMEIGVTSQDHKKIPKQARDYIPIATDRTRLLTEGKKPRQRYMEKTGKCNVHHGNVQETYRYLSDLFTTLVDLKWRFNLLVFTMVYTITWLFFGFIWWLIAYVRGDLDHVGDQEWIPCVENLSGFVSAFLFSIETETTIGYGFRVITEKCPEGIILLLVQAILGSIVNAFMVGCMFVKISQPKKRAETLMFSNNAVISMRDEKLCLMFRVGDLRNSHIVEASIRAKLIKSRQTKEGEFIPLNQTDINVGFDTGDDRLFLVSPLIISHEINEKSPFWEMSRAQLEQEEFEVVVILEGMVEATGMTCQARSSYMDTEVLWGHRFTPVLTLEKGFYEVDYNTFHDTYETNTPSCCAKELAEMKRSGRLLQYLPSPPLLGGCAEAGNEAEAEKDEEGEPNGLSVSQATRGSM
- ASSAY COMMENT: Patch-clamp recording of whole-cell IK,Ach currents in HL-1 cells
- RECORDED CONDITIONS: patch clamp, measured at −100 mV, 10 μM carbachol, read-out: IC50 for block of IK,Ach current
MEASURE NAME: pIC50
Notebook: values listed as pIC50 are -log10 of the concentration (mol/L).

Give its pIC50 value. Item: CCCNCC(O)COc1ccccc1C(=O)CCc1ccccc1 (stereo not shown)
5.70
